Assay: self-splicing fitness, log relative to wild type (ln ratio); higher = more splicing; Tetrahymena group I intron in knt gene, E. coli kanamycin selection, DiMSum; sequences stand for … in CUCUCU…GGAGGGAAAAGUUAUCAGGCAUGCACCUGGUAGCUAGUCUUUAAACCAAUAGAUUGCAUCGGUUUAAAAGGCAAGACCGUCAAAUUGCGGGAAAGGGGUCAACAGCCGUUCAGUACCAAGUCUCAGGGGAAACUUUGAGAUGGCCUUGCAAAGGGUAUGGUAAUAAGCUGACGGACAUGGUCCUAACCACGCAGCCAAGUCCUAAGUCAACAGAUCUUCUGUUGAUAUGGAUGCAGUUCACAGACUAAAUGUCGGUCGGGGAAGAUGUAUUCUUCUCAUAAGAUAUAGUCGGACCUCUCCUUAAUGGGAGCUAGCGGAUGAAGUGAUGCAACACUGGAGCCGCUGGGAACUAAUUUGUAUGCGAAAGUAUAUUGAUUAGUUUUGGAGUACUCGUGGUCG;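 also: selection with 25 µg/mL kanamycin versus none on LB agar overnight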
Details: 30 °C
Value Kind: self-splicing fitness (ln)
Give the figure by itself; no unit, no explanation.

Use the examples below as a reference point.
INSERT INTO results (monomer_sequence, quantitative_readout) VALUES
  ('CCGAAGCAAUAUUACGGCGC', -4.16),
  ('ACAAAGCAAUAUUACGUAAG', -1.19),
  ('UCCAAGCAAUAUUACGGGGC', -4.07),
  ('GUGGAGCAAUAUUACGAAAU', -4.22),
  ('GACCAGCAAUAUUACGAGGA', -1.04),
  ('UGCCAGCAAUAUUACGGCAU', -2.48);

Sample ACCCAGCAAUAUUACGUUGC — what was its self-splicing fitness (ln)?
-2.99

Sample CUUGAGCAAUAUUACGCUGA — what was its self-splicing fitness (ln)?
-2.33

* * *

Test: self-splicing fitness, log relative to wild type (ln ratio); higher = more splicing; Tetrahymena group I intron in knt gene, E. coli kanamycin selection, DiMSum; sequences stand for … in CUCUCU…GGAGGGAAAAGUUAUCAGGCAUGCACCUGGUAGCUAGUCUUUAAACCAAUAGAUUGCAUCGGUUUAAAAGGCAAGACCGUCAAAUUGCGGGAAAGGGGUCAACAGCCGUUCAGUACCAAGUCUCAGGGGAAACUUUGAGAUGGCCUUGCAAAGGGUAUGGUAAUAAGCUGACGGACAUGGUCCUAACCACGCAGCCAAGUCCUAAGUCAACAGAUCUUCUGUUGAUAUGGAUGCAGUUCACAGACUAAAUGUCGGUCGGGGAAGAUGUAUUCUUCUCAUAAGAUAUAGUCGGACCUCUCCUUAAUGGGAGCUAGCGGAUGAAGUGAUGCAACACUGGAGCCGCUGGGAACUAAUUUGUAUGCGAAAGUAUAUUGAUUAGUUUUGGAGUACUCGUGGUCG
Settings: 30 °C
Measured self-splicing fitness (ln) of individual entries
Give the figure by itself; no unit, no explanation.

Use the examples below as a reference point.
INSERT INTO assay_data (monomer_sequence, value_kind, quantitative_readout) VALUES
  ('AUAUAGCAAUAUUACGCAUA', 'self-splicing fitness (ln)', -2.02),
  ('AAAUAGCAAUAUUACGGUUG', 'self-splicing fitness (ln)', -1.88),
  ('CAACAGCAAUAUUACGAUAC', 'self-splicing fitness (ln)', -3.29),
  ('UAAUAGCAAUAUUACGAUUU', 'self-splicing fitness (ln)', -2),
  ('UUGGAGCAAUAUUACGGGGU', 'self-splicing fitness (ln)', -4.02),
  ('GAGCAGCAAUAUUACGUAUU', 'self-splicing fitness (ln)', -2.62),
  ('CUCUAGCAAUAUUACGUAGA', 'self-splicing fitness (ln)', -3.49),
  ('GCGCAGCAAUAUUACGCAGU', 'self-splicing fitness (ln)', -2.63),
  ('CGUGAGCAAUAUUACGUUGG', 'self-splicing fitness (ln)', -2.62),
  ('CCGAAGCAAUAUUACGCCUG', 'self-splicing fitness (ln)', -1.04);

Then there is this sequence:
Sample UUGCAGCAAUAUUACGUGAG — what was its self-splicing fitness (ln)?
-0.139
